Test: total protein half-life in vivo (active degradation + dilution); higher = more stable protein
Conditions: E. coli NCM3722 delta-clpP delta-lon delta-hslV; growth: N-lim chemostat; doubling time 6 h
Parameter total protein half-life in vivo: see the listing below.
Unit h implied. Number only.

The following sequences have reported results that may help.
• MKTPLVTREGYEKLKQELNYLWREERPEVTKKVTWAASLGDRSENADYQYNKKRLREIDRRVRYLTKCLENLKIVDYSPQQEGKVFFGAWVEIENDDGVTHRFRIVGYDEIFGRKDYISIDSPMARALLKKEVGDLAVVNTPAGEASWYVNAIEYVKP = 4.94
• MSEKVVFSQLSRKFIDENDATPAEAQQVVYYSLAIGHHLGVIDCLEAALTCPWDEYLAWIATLEAGSEARRKMEGVPKYGEIVIDINHVPMLANAFDKARAAQTSQQQEWSTMLLSMLHDIHQENAIYLMVRRLRD [P0AEV7] = 3.73
• MLIRVEIPIDAPGIDALLRRSFESDAEAKLVHDLREDGFLTLGLVATDDEGQVIGYVAFSPVDVQGEDLQWVGMAPLAVDEKYRGQGLARQLVYEGLDSLNEFGYAAVVTLGDPALYSRFGFELAAHHDLRCRWPGTESAFQVHRLADDALNGVTGLVEYHEHFNRF = 5.29
• MPDQTQQFSFKVLTINIHKGFTAFNRRFILPELRDAVRTVSADIVCLQEVMGAHEVHPLHVENWPDTSHYEFLADTMWSDFAYGRNAVYPEGHHGNAVLSRYPIEHYENRDVSVDGAEKRGVLYCRIVPPMTGKAIHVMCVHLGLREAHRQAQLAMLAEWVNELPDGEPVLVAGDFNDWRQKANHPLKVQAGLDEIFTRAHGRPARTFPVQFPLLRLDRIYVKNASASAPTALPLRTWRHLSDHAPLSAEIHL [P0AAW1] = 6.17
• MKKVLIAALIAGFSLSATAAETIRFATEASYPPFESIDANNQIVGFDVDLAQALCKEIDATCTFSNQAFDSLIPSLKFRRVEAVMAGMDITPEREKQVLFTTPYYDNSALFVGQQGKYTSVDQLKGKKVGVQNGTTHQKFIMDKHPEITTVPYDSYQNAKLDLQNGRIDGVFGDTAVVTEWLKDNPKLAAVGDKVTDKDYFGTGLGIAVRQGNTELQQKLNTALEKVKKDGTYETIYNKWFQK = 5.31
• MTSPNILLTRIDNRLVHGQVGVTWTSTIGANLLVVVDDVVANDDIQQKLMGITAETYGFGIRFFTIEKTINVIGKAAPHQKIFLICRTPQTVRKLVEGGIDLKDVNVGNMHFSEGKKQISSKVYVDDQDLTDLRFIKQRGVNVFIQDVPGDQKEQIPD = 5.94

Could you tell me which total protein half-life in vivo is on file for `MQNRLTIKDIARLSGVGKSTVSRVLNNESGVSQLTRERVEAVMNQHGFSPSRSARAMRGQSDKVVAIIVTRLDSLSENLAVQTMLPAFYEQGYDPIMMESQFSPQLVAEHLGVLKRRNIDGVVLFGFTGITEEMLAHWQSSLVLLARDAKGFASVCYDDEGAIKILMQRLYDQGHRNISYLGVPHSDVTTGKRRHEAYLAFCKAHKLHPVAALPGLAMKQGYENVAKVITPETTALLCATDTLALGASKYLQEQRIDTLQLASVGNTPLMKFLHPEIVTVDPGYAEAGRQAACQLIAQVTGRSEPQQIIIPATLS` ?
5.44

----------
Parameter total protein half-life in vivo: see the listing below.
Assay: total protein half-life in vivo (active degradation + dilution); higher = more stable protein
Conditions: E. coli NCM3722 delta-clpP delta-lon delta-hslV; growth: N-lim chemostat; doubling time 6 h
Unit h implied. Number only.

* MIWKRKITLEALNAMGEGNMVGFLDIRFEHIGDDTLEATMPVDSRTKQPFGLLHGGASVVLAESIGSVAGYLCTEGEQKVVGLEINANHVRSAREGRVRGVCKPLHLGSRHQVWQIEIFDEKGRLCCSSRLTTAIL | 4.78
* MALLDFFLSRKKNTANIAKERLQIIVAERRRSDAEPHYLPQLRKDILEVICKYVQIDPEMVTVQLEQKDGDISILELNVTLPEAEELK [P0A734] | 5.76
* MQAEILLTLKLQQKLFADPRRISLLKHIALSGSISQGAKDAGISYKSAWDAINEMNQLSEHILVERATGGKGGGGAVLTRYGQRLIQLYDLLAQIQQKAFDVLSDDDALPLNSLLAAISRFSLQTSARNQWFGTITARDHDDVQQHVDVLLADGKTRLKVAITAQSGARLGLDEGKEVLILLKAPWVGITQDEAVAQNADNQLPGIISHIERGAEQCEVLMALPDGQTLCATVPVNEATSLQQGQNVTAYFNADSVIIATLC [P0A9G8] | 5.34
* MENKYSRLQISIHWLVFLLVIAAYCAMEFRGFFPRSDRPLINMIHVSCGISILVLMVVRLLLRLKYPTPPIIPKPKPMMTGLAHLGHLVIYLLFIALPVIGLVMMYNRGNPWFAFGLTMPYASEANFERVDSLKSWHETLANLGYFVIGLHAAAALAHHYFWKDNTLLRMMPRKRS [P0ABE5] | 7.28
* MNRIEHYHDWLRDAHAMEKQAESMLESMASRIDNYPELRARIEQHLSETKNQIVQLETILDRNDISRSVIKDSMSKMAALGQSIGGIFPSDEIVKGSISGYVFEQFEIACYTSLLAAAKNAGDTASIPTIEAILNEEKQMADWLIQNIPQTTEKFLIRSETDGVEAKK | 4.87
* MPRFAANLSMMFTEVPFIERFAAARKAGFDAVEFLFPYNYSTLQIQKQLEQNHLTLALFNTAPGDINAGEWGLSALPGREHEAHADIDLALEYALALNCEQVHVMAGVVPAGEDAERYRAVFIDNIRYAADRFAPHGKRILVEALSPGVKPHYLFSSQYQALAIVEEVARDNVFIQLDTFHAQKVDGNLTHLIRDYAGKYAHVQIAGLPDRHEPDDGEINYPWLFRLFDEVGYQGWIGCEYKPRGLTEEGLGWFDAWR | 3.98
* MSHTIRDKQKLKARASKIQGQVVALKKMLDEPHECAAVLQQIAAIRGAVNGLMREVIKGHLTEHIVHQGDELKREEDLDVVLKVLDSYIK | 7.38
* MNSFNEGVVSPLLSFWRRSLMLAGALLLTACSHNSSLPPFTASGFAEDQGAVRIWRKDSGDNVHLLAVFSPWRSGDTTTREYRWQGDNLTLININVYSKPPVNIRARFDDRGDLSFMQRESDGEKQQLSNDQIDLYRYRADQIRQISDALRQGRVVLRQGRWHAMEQTVTTCEGQTIKPDLDSQAIAHIERRQSRSSVDVSVAWLEAPEGSQLLLVANSDFCRWQPNEKTF | 6.47

Now consider the entry below.
Could you tell me which total protein half-life in vivo is on file for `MATTHLDVCAVVPAAGFGRRMQTECPKQYLSIGNQTILEHSVHALLAHPRVKRVVIAISPGDSRFAQLPLANHPQITVVDGGDERADSVLAGLKAAGDAQWVLVHDAARPCLHQDDLARLLALSETSRTGGILAAPVRDTMKRAEPGKNAIAHTVDRNGLWHALTPQFFPRELLHDCLTRALNEGATITDEASALEYCGFHPQLVEGRADNIKVTRPEDLALAEFYLTRTIHQENT` ?
4.65

----------
Experiment: total protein half-life in vivo (active degradation + dilution); higher = more stable protein
Settings: wild type E. coli NCM3722; growth: C-lim chemostat; doubling time 3 h
Parameter total protein half-life in vivo: see the listing below.
Unit h implied. Number only.

The following sequences have reported results that may help.
• MIISAASDYRAAAQRILPPFLFHYMDGGAYSEYTLRRNVEDLSEVALRQRILKNMSDLSLETTLFNEKLSMPVALAPVGLCGMYARRGEVQAAKAADAHGIPFTLSTVSVCPIEEVAPAIKRPMWFQLYVLRDRGFMRNALERAKAAGCSTLVFTVDMPTPGARYRDAHSGMSGPNAAMRRYLQAVTHPQWAWDVGLNGRPHDLGNISAYLGKPTGLEDYIGWLGNNFDPSISWKDLEWIRDFWDGPMVIKGILDPEDARDAVRFGADGIVVSNHGGRQLDGVLSSARALPAIADAVKGDIAILADSGIRNGLDVVRMIALGADTVLLGRAFLYALATAGQAGVANLLNLIEKEMKVAMTLTGAKSISEITQDSLVQGLGKELPAALAPMAKGNAA = 2.28
• MRTVLNILNFVLGGFATTLGWLLATLVSIVLIFTLPLTRSCWEITKLSLVPYGNEAIHVDELNPAGKNVLLNTGGTVLNIFWLIFFGWWLCLMHIATGIAQCISIIGIPVGIANFKIAAIALWPVGRRVVSVETAQAAREANARRRFE [P0AB12] = 2.89

Could you tell me which total protein half-life in vivo is on file for `MKRAPLITGLLLISTSCAYASSGGCGADSTSGATNYSSVVDDVTVNQTDNVTGREFTSATLSSTNWQYACSCSAGKAVKLVYMVSPVLTTTGHQTGYYKLNDSLDIKTTLQANDIPGLTTDQVVSVNTRFTQIKNNTVYSAATQTGVCQGDTSRYGPVNIGANTTFTLYVTKPFLGSMTIPKTDIAVIKGAWVDGMGSPSTGDFHDLVKLSIQGNLTAPQSCKINQGDVIKVNFGFINGQKFTTRNAMPDGFTPVDFDITYDCGDTSKIKNSLQMRIDGTTGVVDQYNLVARRRSSDNVPDVGIRIENLGGGVANIPFQNGILPVDPSGHGTVNMRAWPVNLVGGELETGKFQGTATITVIVR` ?
3.66
